tgt: NADH-ubiquinone oxidoreductase chain 1 (Bos taurus)
assay_protocol: Inhibition of Bos taurus (bovine) mitochondrial complex 1 assessed as reduction in enzyme activity by NADH-DB oxidoreductase assay
Threshold 0.5 µM: IC50 strictly smaller gives met, otherwise not met.

For orientation, consider the following solved cases.
- smiles_data: "CCN(CC1=C(C)C(=O)C(OC)=C(OC)C1=O)C(=O)c1ccc(Oc2ccc(C(C)(C)C)cc2)cc1"
  label_class: "met"
- smiles_data: "COC1=C(OC)C(=O)C(CNC(=O)c2ccc(Oc3ccc(C(C)(C)C)cc3)cc2)=C(C)C1=O"
  label_class: "met"
- smiles_data: "CCCCCCCCCCC(=O)N(C)CC1=C(C)C(=O)C(OC)=C(OC)C1=O"
  label_class: "not met"
- smiles_data: "C/C=C(\\C)[C@H](O)[C@H](C)/C=C(C)/C=C/C/C(C)=C/Cc1nc(OC)c(OC)c(O)c1C"
  label_class: "met"
- smiles_data: "COC1=C(OC)C(=O)C(CCCCCCN(C)C(=O)c2ccc(Oc3ccc(C(C)(C)C)cc3)cc2)=C(C)C1=O"
  label_class: "not met"

Query: Confirm or reject: IC50 of "CCCCc1ccc(Oc2ccc(C(=O)N(C)CC3=C(C)C(=O)C(OC)=C(OC)C3=O)cc2)cc1" lies strictly below 0.5 µM
Response: not met

Query: Confirm or reject: IC50 of "CN(C)C(=O)c1ccc(Oc2ccc(C(C)(C)C)cc2)cc1" lies strictly below 0.5 µM
Response: not met

###

# maps each entry to its IC50
tgt: NADH-ubiquinone oxidoreductase chain 1 (Bos taurus, UniProt P03887)
Sequence (P03887 whole entry): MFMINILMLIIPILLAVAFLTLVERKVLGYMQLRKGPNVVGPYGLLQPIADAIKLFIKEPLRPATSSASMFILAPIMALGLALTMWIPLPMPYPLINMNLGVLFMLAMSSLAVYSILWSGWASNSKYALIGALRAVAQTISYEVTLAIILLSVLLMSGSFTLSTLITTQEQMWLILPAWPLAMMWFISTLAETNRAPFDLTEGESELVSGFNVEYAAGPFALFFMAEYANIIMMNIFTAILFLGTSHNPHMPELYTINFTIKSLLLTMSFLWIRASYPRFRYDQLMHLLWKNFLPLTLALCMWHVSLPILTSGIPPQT
assay_protocol: Inhibition of Bos taurus (bovine) mitochondrial complex 1 assessed as reduction in enzyme activity by NADH-DU oxidoreductase assay

- smiles_data: "CCN(CC1=C(C)C(=O)C(OC)=C(OC)C1=O)C(=O)c1ccc(Oc2ccc(C(C)(C)C)cc2)cc1"
  tgt: "NADH-ubiquinone oxidoreductase chain 1 (Bos taurus, UniProt P03887)"
  value_measured: "0.63 µM"
- smiles_data: "CCCCc1ccc(Oc2ccc(C(=O)N(C)CC3=C(C)C(=O)C(OC)=C(OC)C3=O)cc2)cc1"
  tgt: "NADH-ubiquinone oxidoreductase chain 1 (Bos taurus, UniProt P03887)"
  value_measured: "0.84 µM"
- smiles_data: "COC1=C(OC)C(=O)C(CNC(=O)c2ccc(Oc3ccc(C(C)(C)C)cc3)cc2)=C(C)C1=O"
  tgt: "NADH-ubiquinone oxidoreductase chain 1 (Bos taurus, UniProt P03887)"
  value_measured: "0.53 µM"
- smiles_data: "COC1=C(OC)C(=O)C(CN(C)C(=O)c2ccc(Oc3ccc(C(C)(C)C)cc3)cc2)=C(C)C1=O"
  tgt: "NADH-ubiquinone oxidoreductase chain 1 (Bos taurus, UniProt P03887)"
  value_measured: "0.088 µM"
- smiles_data: "COC1=C(OC)C(=O)C(CCCCCCN(C)C(=O)c2ccc(Oc3ccc(C(C)(C)C)cc3)cc2)=C(C)C1=O"
  tgt: "NADH-ubiquinone oxidoreductase chain 1 (Bos taurus, UniProt P03887)"
  value_measured: "0.61 µM"

Query: Give its IC50 value. Item: "CCCCCCCCCCC(=O)N(C)CC1=C(C)C(=O)C(OC)=C(OC)C1=O"
Response: 6.2 µM

Query: Give its IC50 value. Item: "COC1=C(OC)C(=O)C(CC(=O)N(C)c2ccc(Oc3ccc(C(C)(C)C)cc3)cc2)=C(C)C1=O"
Response: 2 µM

Query: Give its IC50 value. Item: "COC1=C(OC)C(=O)C(CCN(C)C(=O)c2ccc(Oc3ccc(C(C)(C)C)cc3)cc2)=C(C)C1=O"
Response: 0.76 µM

meta.source: ChEMBL document CHEMBL3044975
